molecular target: Inadl_8, Q8NI35; assay: holdup assay; parameters: key: below the threshold = too weak to quantify, mostly under pKd 3.1 to 4; conditions: plain residues with an end cap or a label only (N-terminal biotin on a linker: ahx)
Sequence (Q8NI35 1425-1530): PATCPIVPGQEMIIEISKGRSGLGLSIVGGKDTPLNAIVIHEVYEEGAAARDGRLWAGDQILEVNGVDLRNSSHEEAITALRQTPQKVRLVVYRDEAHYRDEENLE
Experimental Readout: pKd

Some solved entries appear below for comparison.
{"Binder": "TEAKLTETNA [MYO18A, Q92614]", "Experimental Readout": "pKd", "Recorded Measurement": "below the threshold"}
{"Binder": "QPRTWLQSPV [RTKN, Q9BST9]", "Experimental Readout": "pKd", "Recorded Measurement": 4.89}
{"Binder": "HTHSYIETHV [CNKSR2, Q8WXI2]", "Experimental Readout": "pKd", "Recorded Measurement": "below the threshold"}
{"Binder": "TESNLQTSSC [CGN, Q9P2M7]", "Experimental Readout": "pKd", "Recorded Measurement": 4.18}

## Input Report pKd for TQKFRASTAL [FRMPD1, Q5SYB0] please.
## Output below the threshold

## Input Report pKd for EKQAKGDTEF [CACYBP, Q9HB71] please.
## Output below the threshold

## Input Report pKd for QDEKVKESYV [ABCA1, O95477] please.
## Output 4.68

## Input Report pKd for QNTDDVQTSF [ACE2, Q9BYF1] please.
## Output below the threshold

## Input Report pKd for APSRKLNTEI [TIAM1, Q13009] please.
## Output below the threshold
